system: DU-145 prostate; experiment: NCI tumour cell line growth inhibition, 48 h
Measured TGI, listed per entry for reference.

Cc1nc2sc(C(=O)Nc3cccc(Cl)c3C)c(N)c2cc1C(=O)c1ccccc1 : > 50 µM

What the record says about Cc1ccc(-c2n[nH]c(=O)n2N2C(=O)C=CC2=O)cc1 : TGI is > 100 µM

Lab note: measured TGI of COc1cc(S(=O)(=O)Nc2ccc(-c3csc(/N=C\C=C\c4ccccc4)n3)cc2)ccc1Cl was > 100 µM

Sample O=C(c1ccncc1)N1CCN(C2=NS(=O)(=O)c3ccccc3N2c2ccccc2)CC1 ; TGI observed: > 100 µM

Entry CCCCC/C=C\C/C=C/CCCCCCCCNC(=O)Nc1ccc([N+](=O)[O-])cc1 , TGI reported as > 100 µM

Recorded result, C=CCN1C[C@@H](C)N([C@@H](c2ccccc2)c2ccc(C(=O)N(CC)CC)cc2)C[C@@H]1C , TGI: > 100 µM

Looking up Cc1ccc(C(CC(=O)c2ccccc2)C(C(=O)c2ccccc2)C(c2ccc(C)cc2)C2C(=O)NC(=S)NC2=O)cc1 (configuration not stated) , I found its TGI recorded as > 50 µM

According to the records, this compound COC(=O)C1=C(OC(=O)/C(=C/c2c(F)cccc2F)c2ccccc2)C(C(=O)OC)[C@@]2(O)[C@@H](C(=O)OC)[C@H](C)C[C@@H]1[C@@H]2C(=O)OC (some centres not stated) displays TGI of > 100 µM

The compound [O]=[W](=[O])([OH])[OH] showed TGI equal to > 100 µM

Recorded result, CCCCC1=CC1(C#N)[N+](=O)[O-] (configuration not stated) , TGI: > 100 µM

compound Nc1nc(NCC2(CO)CC(CCc3ccccc3)C2)cc(=O)[nH]1 (configuration not stated) , TGI observed: > 100 µM

The reported value for O=C1Cc2c(-c3ccccc3)cc(-c3ccc4ccccc4c3)nc2-c2ccccc2N1 in terms of TGI is > 100 µM

---

// values below are reported TGI
test system: SK-MEL-5 melanoma; test: NCI tumour cell line growth inhibition, 48 h

Guide cases for TGI, answers given:
CN1CC(S(=O)(=O)c2ccccc2)CC(S(=O)(=O)c2ccccc2)C1c1ccccc1 (centres undefined) : 28.6 µM
CC(=O)O[C@H]1CC[C@@]2(C)C(=CC[C@H]3[C@@H]4C/C(=C\c5ccncc5)[C@H](OC(C)=O)[C@@]4(C)CC[C@@H]32)C1 : 18.9 µM
CCOC(=O)NC(C(C(=O)OCC)C(=O)OCC)(C(F)(F)F)C(F)(F)F : > 100 µM
CCc1cccc(CC)c1NC(=O)c1ccn2c1CCc1cnc(Nc3ccc(N4CCN(C)CC4)cc3OC)nc1-2 : 3.02 µM
CCOC(=O)c1nc2cc(C(F)(F)F)ccc2nc1Oc1ccc(C(=O)OC)cc1 : > 100 µM
Cc1cccc2c1ccc1c3occ(C)c3c(=O)oc21 : > 100 µM
COC1CC(n2ccc(=O)[nH]c2=O)OC1CO (centres undefined) : > 100 µM
CCCC(=O)Nc1ncnc2c1ncn2C1OC2COP(=O)(O)OC2C1OC(=O)CCC (centres undefined) : > 1000 µM

Case COC(=O)c1cn(CCCCO)nn1 , SK-MEL-5 melanoma, TGI recorded as > 100 µM

Kindly note: SK-MEL-5 melanoma, COc1cc([N+](=O)[O-])c(OC)cc1-c1nc2n(c1/C(N)=N/C(=N)N)CCS2 , TGI value reported: > 100 µM

// TGI (SK-MEL-5 melanoma) for CCN(CC)C(=O)N[C@@H](Cc1ccccc1)C(=O)NC = > 100 µM

Readout TGI for Cc1n(CC(C)C)c2c([n+]1CC(=O)c1ccc([N+](=O)[O-])cc1)C(=O)c1ccccc1C2=O , test system SK-MEL-5 melanoma, was < 0.0309 µM

Record O=C(Oc1ccc(OC(Oc2ccccc2)c2ccccc2)cc1)c1ccccc1 (centres undefined) / SK-MEL-5 melanoma, TGI recorded as > 31.6 µM

Log: SK-MEL-5 melanoma, compound COC(=O)c1c2c(cc3c1CC1(C3)Cc3ccc4c(c3C1=O)CCC4)CCC2 (centres undefined) , TGI = 20.4 µM

---

Each entry below carries its recorded TGI.
test system: SNB-19 CNS; test: NCI tumour cell line growth inhibition, 48 h

Here's what some known entries look like.
Cc1ccc(C(CC(=O)c2ccccc2)C(C(=O)c2ccccc2)C(c2ccc(C)cc2)C2C(=O)NC(=S)NC2=O)cc1 (configuration not stated) : > 50 µM
C=CCCC(O)c1ccc(CCCCCCCCCCC)o1 (configuration not stated) : 35 µM
COc1ccc(/C(Cl)=C(\CNc2ccccn2)c2ccccc2)cc1OC : > 100 µM
Nc1ncnc2c1c(C(=O)NO)cn2C1OC(CO)C(O)C1O (configuration not stated) : > 100 µM
CN(C)C(=O)C(F)(F)C(c1ccc(C(F)(F)F)cc1)C1C(=O)N(C)C(=O)N(C)C1=O (configuration not stated) : > 100 µM
COC1CC(n2ccc(=O)[nH]c2=O)OC1CO (configuration not stated) : > 100 µM
Cc1cn(C2CC(N=[N+]=[N-])C(CO)O2)c(=O)n(CCCCO)c1=O (configuration not stated) : > 100 µM
Cc1ccc(S(=O)(=O)c2ccsc2NC(=O)c2ccccc2)cc1 : > 100 µM
N#Cc1nc(C2SCCCS2)oc1N : > 100 µM
C[CH2][Sn]([Cl])([CH2]C)[CH2]C : 10.6 µM

So, CC(=O)NC(CCCOC(C)=O)C(=O)NC(CCCOC(C)=O)C(=O)NC(CCCOC(C)=O)C(=O)NC(Cc1ccc([N+](=O)[O-])cc1)C(=O)NCC(=O)OCc1ccccc1 (configuration not stated) ? Its TGI was > 100 µM

Form: compound = Cc1nc2ccc(S(=O)(=O)Nc3ccccc3Cl)cc2c(=O)n1NC(=O)CNc1ccccc1Cl ; TGI = > 100 µM

---

system: HOP-62 NSCLC; assay: NCI tumour cell line growth inhibition, 48 h
TGI overview

Check out these entries, answers already filled in.
C=CCN1C[C@@H](C)N([C@@H](c2ccccc2)c2ccc(C(=O)N(CC)CC)cc2)C[C@@H]1C : > 100 µM
C=CCCCCn1c2ccccc2c2c(C)c3c[n+](C)ccc3c(C)c21 : 1.94 µM

# evaluate next
Summary for this compound, CC(=O)OCc1c(C)c2ccccc2n1C(C)=O : TGI is > 100 µM

---

Each entry below carries its reported TGI.
tested on: KM12 colon; test: NCI tumour cell line growth inhibition, 48 h
Where a SMILES comes first, the peptide text is derived from it. The star is where a group is joined. Boc = CC(C)(C)OC(=O)*; OBn = c1ccc(CO*)cc1

Some solved entries appear below for comparison.
Cc1cccc(Nc2nc(NNC(=O)Cc3ccccc3)nc(NNC(=O)c3ccncc3)n2)c1 : > 10 µM
COc1ccc(OC)c(-c2cc(C(=O)O)c3cc4ccccc4cc3n2)c1 : > 100 µM
COCO[C@@H]1CC2C=Nc3cc(OCc4ccccc4)c(OC)cc3C(=O)N2C1 (some centres undefined) : 10.6 µM
CCCCCCCCCCCCCCCCNc1ccc2c(c1)OCCOCCOCCOCCO2 : 4.84 µM

Kindly note the recorded TGI for O=c1[nH]c(=O)n(C2OC(CO)C(O)C2O)cc1OCc1ccccc1 (centres undefined) , which is > 100 µM

Documented TGI of Cc1nn(-c2ccccc2)c(C)c1/C=N/N1CCN(Cc2ccccc2)CC1 : > 100 µM

Documented TGI of O=C(O)C1CCCCC1C(=O)Nc1nc2ccccc2[nH]1 (centres undefined) : > 100 µM

For CCN(CC)c1nc(=O)c(C(=O)C(C)(C)C)c(C(C)(C)C)o1 the molecule record lists TGI as > 100 µM

Field TGI (entry COCN1C(=O)[C@@H]2CCCN2C(=O)c2cc(Cl)ccc21 ) reads > 100 µM

# TGI (molecule: COC(=O)C1CCC[C@H]2C(CO)=C(C)C(=O)[C@@H]12 (some centres undefined) ) is > 100 µM

Per the records, this molecule ( CC(C)C(NC(=O)CNC(=O)C1CCCN1C(=O)C(NC(=O)OC(C)(C)C)C(C)C)C(=O)NCC(=O)OCc1ccccc1 (centres undefined) (Boc-VPGVG-OBn; configuration not given here) ) has TGI equal to > 100 µM

TGI measured on COc1cc2c3c(c1OCc1ccccc1)NCCC3NCC2 (centres undefined) = > 100 µM

Value of TGI reported for the molecule Cc1n(CC(C)C)c2c([n+]1CC(=O)c1ccc([N+](=O)[O-])cc1)C(=O)c1ccccc1C2=O is 0.386 µM

# molecule Cc1cc(S(=O)(=O)Nc2nc(N)nc(N(C)C)n2)c(SC(C(=O)O)c2ccccc2)cc1Cl (centres undefined) ; its TGI = > 10 µM

TGI in this record for CC(C)N(C(=O)C12C3C4C5C3C1(C#N)C5C42)C(C)C (centres undefined) : > 100 µM

The molecule O=C1C2C3CCC(C2C(=O)N1CO)C1C2C(=O)N(CO)C(=O)C2C31 (centres undefined) showed TGI equal to > 100 µM

// TGI value for O=C1NCC2(CCNCC2)N1 : > 100 µM

Summary for this molecule, CCN(CC)C(=O)N[C@@H](Cc1ccccc1)C(=O)NC : TGI is > 100 µM

What the record says about Nc1nc(NCC2(CO)CC(CCc3ccccc3)C2)cc(=O)[nH]1 (centres undefined) : TGI is > 100 µM

TGI for O=c1cc(-c2ccccc2)nc2cc(-c3ccco3)[nH]n12 is 50.6 µM

In plain terms, C[C@]12CC/C(=N\OC(=O)Nc3ccccc3)C=C1CC[C@@H]1C2CC[C@@]2(C)C1CC[C@@H]2OC(=O)Nc1ccccc1 (some centres undefined) has a documented TGI of > 100 µM
